Target: Vav2 C1 5X (D9M/K10S/T11P/T24L/Y26K) (Homo sapiens, UniProt P52735, D532M/K533S/T534P/T547L/Y549K)
Sequence (P52735 523-572 D532M/K533S/T534P/T547L/Y549K): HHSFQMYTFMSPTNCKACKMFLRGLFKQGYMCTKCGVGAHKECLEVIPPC
Assay: [3H]PDBu binding, polyethylene glycol precipitation assay
Conditions: GST-tagged C1 domain; mean ± SEM of triplicate experiments
recorded.endpoint: Kd (nM)
Return type: number; implicit unit nM.

Which measured Kd value corresponds to CCCC(=O)O[C@@H]1[C@@H](C)[C@@]2(O)[C@@H](C=C(CO)C[C@]3(O)C(=O)C(C)=C[C@@H]23)[C@@H]2C(C)(C)[C@]12OC(=O)CCC [PDBu, Phorbol 12,13-dibutyrate] ? 651

###

Molecular target: Vav3 C1 5X (T9M/R10S/V11P/T24L/Y26K) (Homo sapiens, UniProt Q9UKW4, R523S/T522M/T537L/V524P/Y539K)
Sequence (Q9UKW4 513-562 T522M/R523S/V524P/T537L/Y539K): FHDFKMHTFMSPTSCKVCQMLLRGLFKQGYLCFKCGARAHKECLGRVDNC
Assay: [3H]PDBu binding, polyethylene glycol precipitation assay
Conditions: GST-tagged C1 domain; mean ± SEM of triplicate experiments
recorded.endpoint: Kd (nM)
Return type: number; implicit unit nM.

Which measured Kd value corresponds to CCCC(=O)O[C@@H]1[C@@H](C)[C@@]2(O)[C@@H](C=C(CO)C[C@]3(O)C(=O)C(C)=C[C@@H]23)[C@@H]2C(C)(C)[C@]12OC(=O)CCC [PDBu, Phorbol 12,13-dibutyrate] ? 4.7

###

Target: Vav3 C1 3X (T9M/R10S/V11P) (Homo sapiens, UniProt Q9UKW4, R523S/T522M/V524P)
Test: [3H]PDBu binding, polyethylene glycol precipitation assay
Conditions: GST-tagged C1 domain; mean ± SEM, only 2 replicates
recorded.endpoint: Kd (nM)
Return type: number; implicit unit nM.

Which measured Kd value corresponds to CCCC(=O)O[C@@H]1[C@@H](C)[C@@]2(O)[C@@H](C=C(CO)C[C@]3(O)C(=O)C(C)=C[C@@H]23)[C@@H]2C(C)(C)[C@]12OC(=O)CCC [PDBu, Phorbol 12,13-dibutyrate] ? 840
